B1: HDV Ribozyme (parent)
chain: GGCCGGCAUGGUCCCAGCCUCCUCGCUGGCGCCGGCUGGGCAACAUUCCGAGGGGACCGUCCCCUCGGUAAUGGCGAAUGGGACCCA

- Variants of: B1
- procedure-summary: self-cleavage, relative activity (ratio to wild type); higher = more cleavage; co-transcriptional
Given measured self-cleavage, output Fulfilled if it is greater than or equal to 0.2 and Not fulfilled if not.

Input line: Please indicate if the recorded self-cleavage for G31A A51C meets or exceeds 0.2.
Output line: Fulfilled

Input line: Follow-up item: C22U G54C
Output line: Fulfilled

Input line: Follow-up item: G31C C33A
Output line: Not fulfilled

Input line: Follow-up item: U65C A87G
Output line: Fulfilled

Input line: Follow-up item: G31U U37A
Output line: Not fulfilled

Input line: Follow-up item: U20A G80U
Output line: Not fulfilled

Input line: Follow-up item: G52C G59U
Output line: Fulfilled

Input line: Follow-up item: G25U G67U
Output line: Fulfilled

Input line: Follow-up item: C4U C19G
Output line: Not fulfilled

Input line: Follow-up item: G25U A71C
Output line: Fulfilled

Input line: Follow-up item: G31C U47C
Output line: Fulfilled

Input line: Follow-up item: C33G G76A
Output line: Not fulfilled

Input line: Follow-up item: A56G C62G
Output line: Fulfilled

Input line: Follow-up item: A43U U65A
Output line: Fulfilled

Input line: Follow-up item: U20A G25C
Output line: Not fulfilled

Input line: Follow-up item: G10C C36A
Output line: Not fulfilled

Input line: Follow-up item: A42U G54A
Output line: Fulfilled

Input line: Follow-up item: G10A U69A
Output line: Fulfilled

Input line: Follow-up item: G73C G74C
Output line: Not fulfilled

Input line: Follow-up item: C14U A78U
Output line: Not fulfilled

The reported numbers originate from the RNAGym collection of RNA variant scans (doi:10.7554/elife.80360).
